- Tested on: Escherichia coli TOP10;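 note: peptides expressed intracellularly from a pBAD plasmid library in pooled LB shake-flask culture, induced with 0.3% L-arabinose, DNA abundance read by NGS, three biological replicates, DESeq2 with apeglm shrinkage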
- experimentalProtocol: shrunken log2 fold change of peptide-encoding DNA abundance (4.5 h post-induction vs induction); higher = less antimicrobial activity (less host growth inhibition)
- particulars: time post-induction: 4.5 h; library: site-saturation at positions 5, 18, 19, 20
readoutName: shrunken log2 fold change

polymersequence=RRIRWRPPRLPRPRPRPCLQPRP measuredon="Escherichia coli TOP10" readoutname="shrunken log2 fold change" experimentalresult=-0.21
polymersequence=RRIRARPPRLPRPRPRPMRRPRP measuredon="Escherichia coli TOP10" readoutname="shrunken log2 fold change" experimentalresult=0.2
polymersequence=RRIRGRPPRLPRPRPRPKYIPRP measuredon="Escherichia coli TOP10" readoutname="shrunken log2 fold change" experimentalresult=0.167
polymersequence=RRIRYRPPRLPRPRPRPKWTPRP measuredon="Escherichia coli TOP10" readoutname="shrunken log2 fold change" experimentalresult=-0.298
polymersequence=RRIRNRPPRLPRPRPRPWWCPRP measuredon="Escherichia coli TOP10" readoutname="shrunken log2 fold change" experimentalresult=-0.111
polymersequence=RRIRARPPRLPRPRPRPNILPRP measuredon="Escherichia coli TOP10" readoutname="shrunken log2 fold change" experimentalresult=-0.00643
polymersequence=RRIRNRPPRLPRPRPRPYPVPRP measuredon="Escherichia coli TOP10" readoutname="shrunken log2 fold change" experimentalresult=0.00968
polymersequence=RRIRVRPPRLPRPRPRPAWCPRP measuredon="Escherichia coli TOP10" readoutname="shrunken log2 fold change" experimentalresult=0.211
polymersequence=RRIRHRPPRLPRPRPRPDWNPRP measuredon="Escherichia coli TOP10" readoutname="shrunken log2 fold change" experimentalresult=-0.207
polymersequence=RRIRTRPPRLPRPRPRPTRGPRP measuredon="Escherichia coli TOP10" readoutname="shrunken log2 fold change" experimentalresult=0.705
polymersequence=RRIRCRPPRLPRPRPRPFWTPRP measuredon="Escherichia coli TOP10" readoutname="shrunken log2 fold change" experimentalresult=-0.317
polymersequence=RRIRYRPPRLPRPRPRPCYVPRP measuredon="Escherichia coli TOP10" readoutname="shrunken log2 fold change" experimentalresult=-0.0553
polymersequence=RRIRNRPPRLPRPRPRPPNVPRP measuredon="Escherichia coli TOP10" readoutname="shrunken log2 fold change" experimentalresult=-0.0463
polymersequence=RRIRMRPPRLPRPRPRPFPVPRP measuredon="Escherichia coli TOP10" readoutname="shrunken log2 fold change" experimentalresult=-0.175
polymersequence=RRIRTRPPRLPRPRPRPRFKPRP measuredon="Escherichia coli TOP10" readoutname="shrunken log2 fold change" experimentalresult=0.115
polymersequence=RRIRNRPPRLPRPRPRPENCPRP measuredon="Escherichia coli TOP10" readoutname="shrunken log2 fold change" experimentalresult=0.0518
polymersequence=RRIRDRPPRLPRPRPRPISAPRP measuredon="Escherichia coli TOP10" readoutname="shrunken log2 fold change" experimentalresult=0.0787
polymersequence=RRIRERPPRLPRPRPRPKMFPRP measuredon="Escherichia coli TOP10" readoutname="shrunken log2 fold change" experimentalresult=-0.000277
polymersequence=RRIRPRPPRLPRPRPRPSPQPRP measuredon="Escherichia coli TOP10" readoutname="shrunken log2 fold change" experimentalresult=0.2
polymersequence=RRIRVRPPRLPRPRPRPVNYPRP measuredon="Escherichia coli TOP10" readoutname="shrunken log2 fold change" experimentalresult=0.0937
polymersequence=RRIRARPPRLPRPRPRPTTQPRP measuredon="Escherichia coli TOP10" readoutname="shrunken log2 fold change" experimentalresult=0.584
polymersequence=RRIRRRPPRLPRPRPRPQHLPRP measuredon="Escherichia coli TOP10" readoutname="shrunken log2 fold change" experimentalresult=-0.289
polymersequence=RRIRLRPPRLPRPRPRPISMPRP measuredon="Escherichia coli TOP10" readoutname="shrunken log2 fold change" experimentalresult=-0.801
polymersequence=RRIRWRPPRLPRPRPRPCDDPRP measuredon="Escherichia coli TOP10" readoutname="shrunken log2 fold change" experimentalresult=-0.00725
polymersequence=RRIRIRPPRLPRPRPRPGRVPRP measuredon="Escherichia coli TOP10" readoutname="shrunken log2 fold change" experimentalresult=0.0447
polymersequence=RRIRTRPPRLPRPRPRPKGMPRP measuredon="Escherichia coli TOP10" readoutname="shrunken log2 fold change" experimentalresult=0.138
polymersequence=RRIRMRPPRLPRPRPRPGDHPRP measuredon="Escherichia coli TOP10" readoutname="shrunken log2 fold change" experimentalresult=0.147
polymersequence=RRIRMRPPRLPRPRPRPPETPRP measuredon="Escherichia coli TOP10" readoutname="shrunken log2 fold change" experimentalresult=0.807
polymersequence=RRIRNRPPRLPRPRPRPYAFPRP measuredon="Escherichia coli TOP10" readoutname="shrunken log2 fold change" experimentalresult=0.0147
polymersequence=RRIRFRPPRLPRPRPRPSGNPRP measuredon="Escherichia coli TOP10" readoutname="shrunken log2 fold change" experimentalresult=-0.24
polymersequence=RRIRRRPPRLPRPRPRPPMLPRP measuredon="Escherichia coli TOP10" readoutname="shrunken log2 fold change" experimentalresult=0.317
polymersequence=RRIRKRPPRLPRPRPRPNRPPRP measuredon="Escherichia coli TOP10" readoutname="shrunken log2 fold change" experimentalresult=0.0563
polymersequence=RRIRSRPPRLPRPRPRPYHEPRP measuredon="Escherichia coli TOP10" readoutname="shrunken log2 fold change" experimentalresult=-1.19
polymersequence=RRIRERPPRLPRPRPRPDFRPRP measuredon="Escherichia coli TOP10" readoutname="shrunken log2 fold change" experimentalresult=-0.0858
polymersequence=RRIRPRPPRLPRPRPRPWDMPRP measuredon="Escherichia coli TOP10" readoutname="shrunken log2 fold change" experimentalresult=-0.0229
polymersequence=RRIRHRPPRLPRPRPRPRHDPRP measuredon="Escherichia coli TOP10" readoutname="shrunken log2 fold change" experimentalresult=-0.0713
polymersequence=RRIRKRPPRLPRPRPRPFKPPRP measuredon="Escherichia coli TOP10" readoutname="shrunken log2 fold change" experimentalresult=0.0806
polymersequence=RRIRARPPRLPRPRPRPHSPPRP measuredon="Escherichia coli TOP10" readoutname="shrunken log2 fold change" experimentalresult=0.122
polymersequence=RRIRIRPPRLPRPRPRPNSCPRP measuredon="Escherichia coli TOP10" readoutname="shrunken log2 fold change" experimentalresult=-0.184
polymersequence=RRIRMRPPRLPRPRPRPYFGPRP measuredon="Escherichia coli TOP10" readoutname="shrunken log2 fold change" experimentalresult=-0.138
polymersequence=RRIRLRPPRLPRPRPRPSFTPRP measuredon="Escherichia coli TOP10" readoutname="shrunken log2 fold change" experimentalresult=-0.672
polymersequence=RRIRKRPPRLPRPRPRPKNWPRP measuredon="Escherichia coli TOP10" readoutname="shrunken log2 fold change" experimentalresult=0.474
polymersequence=RRIRWRPPRLPRPRPRPFRPPRP measuredon="Escherichia coli TOP10" readoutname="shrunken log2 fold change" experimentalresult=-0.165
polymersequence=RRIRSRPPRLPRPRPRPCERPRP measuredon="Escherichia coli TOP10" readoutname="shrunken log2 fold change" experimentalresult=-0.0685
polymersequence=RRIRGRPPRLPRPRPRPKWCPRP measuredon="Escherichia coli TOP10" readoutname="shrunken log2 fold change" experimentalresult=0.113
polymersequence=RRIRRRPPRLPRPRPRPAHHPRP measuredon="Escherichia coli TOP10" readoutname="shrunken log2 fold change" experimentalresult=0.332
polymersequence=RRIRLRPPRLPRPRPRPHCKPRP measuredon="Escherichia coli TOP10" readoutname="shrunken log2 fold change" experimentalresult=-0.708
polymersequence=RRIRKRPPRLPRPRPRPFQRPRP measuredon="Escherichia coli TOP10" readoutname="shrunken log2 fold change" experimentalresult=-0.0265
polymersequence=RRIRFRPPRLPRPRPRPIVCPRP measuredon="Escherichia coli TOP10" readoutname="shrunken log2 fold change" experimentalresult=-0.406
polymersequence=RRIRSRPPRLPRPRPRPYNKPRP measuredon="Escherichia coli TOP10" readoutname="shrunken log2 fold change" experimentalresult=-1.01
polymersequence=RRIRMRPPRLPRPRPRPSWVPRP measuredon="Escherichia coli TOP10" readoutname="shrunken log2 fold change" experimentalresult=0.051
polymersequence=RRIRMRPPRLPRPRPRPSKRPRP measuredon="Escherichia coli TOP10" readoutname="shrunken log2 fold change" experimentalresult=0.386
polymersequence=RRIRERPPRLPRPRPRPRICPRP measuredon="Escherichia coli TOP10" readoutname="shrunken log2 fold change" experimentalresult=-0.111
polymersequence=RRIRMRPPRLPRPRPRPKPNPRP measuredon="Escherichia coli TOP10" readoutname="shrunken log2 fold change" experimentalresult=0.954
polymersequence=RRIRDRPPRLPRPRPRPMHEPRP measuredon="Escherichia coli TOP10" readoutname="shrunken log2 fold change" experimentalresult=0.0698
polymersequence=RRIRSRPPRLPRPRPRPLPHPRP measuredon="Escherichia coli TOP10" readoutname="shrunken log2 fold change" experimentalresult=0.277
polymersequence=RRIRCRPPRLPRPRPRPIAMPRP measuredon="Escherichia coli TOP10" readoutname="shrunken log2 fold change" experimentalresult=-0.0964
polymersequence=RRIRMRPPRLPRPRPRPLICPRP measuredon="Escherichia coli TOP10" readoutname="shrunken log2 fold change" experimentalresult=0.108
polymersequence=RRIRCRPPRLPRPRPRPLTCPRP measuredon="Escherichia coli TOP10" readoutname="shrunken log2 fold change" experimentalresult=-0.184
polymersequence=RRIRQRPPRLPRPRPRPNHFPRP measuredon="Escherichia coli TOP10" readoutname="shrunken log2 fold change" experimentalresult=0.189
polymersequence=RRIRHRPPRLPRPRPRPAKQPRP measuredon="Escherichia coli TOP10" readoutname="shrunken log2 fold change" experimentalresult=0.307
polymersequence=RRIRIRPPRLPRPRPRPWFAPRP measuredon="Escherichia coli TOP10" readoutname="shrunken log2 fold change" experimentalresult=-0.31
polymersequence=RRIRRRPPRLPRPRPRPHNRPRP measuredon="Escherichia coli TOP10" readoutname="shrunken log2 fold change" experimentalresult=0.0584
